- targetOrTestSystem: T1, Cynomolgus Monkey VSIG4-L-His (cynomolgus monkey)
- T1 construct: ECD with His tag; also called cyVSIG4-L; cyno VSIG4-L-His
- T1 chain: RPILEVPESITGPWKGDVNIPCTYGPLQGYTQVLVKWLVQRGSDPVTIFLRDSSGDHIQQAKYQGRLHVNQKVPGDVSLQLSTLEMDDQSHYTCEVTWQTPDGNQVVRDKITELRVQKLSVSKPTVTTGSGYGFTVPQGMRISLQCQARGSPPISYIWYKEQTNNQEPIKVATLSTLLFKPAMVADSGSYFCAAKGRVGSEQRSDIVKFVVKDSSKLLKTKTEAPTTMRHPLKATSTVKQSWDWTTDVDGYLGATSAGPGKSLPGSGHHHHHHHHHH
- assayOverview: ELISA, Fab P.E. 1:5 on coated antigen;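 further: mouse Fab P.E. samples in 1% skimmed milk PBS, bound to antigen-coated wells for 1 h at room temperature, read as absorbance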
readout: ELISA OD450 (OD450)
Unit OD450 implied. Number only.

Field: example entries. Status: answers known.
12A08 mouse Fab (periplasmic extract) (Fab, V domains shown, mouse Fab with C-terminal His6-c-myc tag) VH: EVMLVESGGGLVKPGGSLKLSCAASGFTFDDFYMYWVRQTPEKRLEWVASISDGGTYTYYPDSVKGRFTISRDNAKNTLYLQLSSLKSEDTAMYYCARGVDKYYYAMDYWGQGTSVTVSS VL: QILLTQSPAIMSASPGEKVTITCSASSSVSYMHWFQQKPGTSPKLWIYSTSNLASGVPARFSGSGSGTSYSLTISRMEAEDAATYYCQQRSSYPLTFGAGTKLELK	4.27
12A12 mouse Fab (periplasmic extract) (Fab, V domains shown, mouse Fab with C-terminal His6-c-myc tag) VH: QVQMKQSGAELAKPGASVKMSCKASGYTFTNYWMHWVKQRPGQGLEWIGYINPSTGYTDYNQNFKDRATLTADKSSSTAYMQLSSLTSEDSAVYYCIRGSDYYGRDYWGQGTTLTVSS VL: DIQMTQTTSSLSASLGDRVTISCRASQDISNYLNWYQQKPDGTLKLLIYYTSRLHSGVPSRFSGSGSGTDYSLTISNLEQEDIATYFCRQGNTLPWTFGGGTKLEIK	4.37
14D12 mouse Fab (periplasmic extract) (Fab, V domains shown, mouse Fab with C-terminal His6-c-myc tag) VH: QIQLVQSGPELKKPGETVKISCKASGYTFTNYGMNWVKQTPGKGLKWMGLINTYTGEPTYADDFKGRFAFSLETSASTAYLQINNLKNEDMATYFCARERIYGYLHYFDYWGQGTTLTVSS VL: DVVMTQTPASLAVSLGQRATISCKASQSVDYDGDSYMNWYQQKPGQPPKLLIYAASNLESGIPARFSGSGSGTDFTLNIHPVEEEDAATYYCQQSNEDPRTFGGGTKLEIK	4.32
16E03 mouse Fab (periplasmic extract) (Fab, V domains shown, mouse Fab with C-terminal His6-c-myc tag) VH: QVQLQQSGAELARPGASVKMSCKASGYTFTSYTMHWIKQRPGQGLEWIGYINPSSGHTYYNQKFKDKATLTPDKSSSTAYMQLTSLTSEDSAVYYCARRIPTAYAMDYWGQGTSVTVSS VL: EIQMTQSHKFMSTSVGDRVSITCKASQDVGTAVAWYQQKPGQSPKLLIYWASTRHTGVPDRFTGSGSGTDFTLTISNVQSEDLADYFCQQYSSYPLTFGAGTKLELK	0.21
15C04 mouse Fab (periplasmic extract) (Fab, V domains shown, mouse Fab with C-terminal His6-c-myc tag) VH: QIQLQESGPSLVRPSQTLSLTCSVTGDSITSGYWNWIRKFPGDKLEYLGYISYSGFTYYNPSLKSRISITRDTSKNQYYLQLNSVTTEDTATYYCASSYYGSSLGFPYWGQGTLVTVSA VL: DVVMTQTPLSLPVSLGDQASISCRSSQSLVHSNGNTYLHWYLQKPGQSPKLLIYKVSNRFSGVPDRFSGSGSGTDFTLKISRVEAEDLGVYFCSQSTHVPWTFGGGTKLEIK	0.05
13H11 mouse Fab (periplasmic extract) (Fab, V domains shown, mouse Fab with C-terminal His6-c-myc tag) VH: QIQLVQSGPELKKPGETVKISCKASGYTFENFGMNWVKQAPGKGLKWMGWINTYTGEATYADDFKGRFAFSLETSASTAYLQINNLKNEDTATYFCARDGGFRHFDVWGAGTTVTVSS VL: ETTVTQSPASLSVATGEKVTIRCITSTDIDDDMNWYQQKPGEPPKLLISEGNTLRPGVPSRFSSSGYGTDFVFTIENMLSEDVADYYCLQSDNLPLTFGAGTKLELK	4.34

Reported ELISA OD450, binder 16E10 mouse Fab (periplasmic extract) (Fab, V domains shown, mouse Fab with C-terminal His6-c-myc tag) VH: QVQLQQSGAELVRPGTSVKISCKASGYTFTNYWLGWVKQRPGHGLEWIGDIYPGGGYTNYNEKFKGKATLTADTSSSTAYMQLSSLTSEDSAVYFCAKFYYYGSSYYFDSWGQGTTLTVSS VL: DIVLTQSPSSLSVSAGEKVTLSCKSSQSLLNSGNQENYLAWYQQKPGQPPKLLIYGASTRESGVPDRFTGSGSGTDFTLTISSVQAEDLAVYYCQNDHSYPLTFGAGTKLELK : ____
1.88

Quick one: ELISA OD450 for 14C05 mouse Fab (periplasmic extract) (Fab, V domains shown, mouse Fab with C-terminal His6-c-myc tag) VH: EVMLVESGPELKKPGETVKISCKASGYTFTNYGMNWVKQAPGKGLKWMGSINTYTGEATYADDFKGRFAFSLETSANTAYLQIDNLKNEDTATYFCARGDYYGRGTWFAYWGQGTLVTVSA VL: ETTVTQSHKFMSTSVGDRVSITCKASQDVSTAVAWYQQKPGQSPKLLIYSASYRYPGVPDRFTGSGSGTDFTFTISSVQAEDLAVYYCQQDYSSPWTFGGGTKLEIK ?
4.37

May I ask what ELISA OD450 has been recorded for 15A06 mouse Fab (periplasmic extract) (Fab, V domains shown, mouse Fab with C-terminal His6-c-myc tag) VH: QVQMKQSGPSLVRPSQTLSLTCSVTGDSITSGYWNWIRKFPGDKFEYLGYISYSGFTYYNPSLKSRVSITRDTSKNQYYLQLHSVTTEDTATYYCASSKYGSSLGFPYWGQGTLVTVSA VL: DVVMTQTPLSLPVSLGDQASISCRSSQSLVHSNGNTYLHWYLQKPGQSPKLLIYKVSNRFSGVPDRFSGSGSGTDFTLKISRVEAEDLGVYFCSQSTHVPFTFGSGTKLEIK ?
0.05

Bench note: what ELISA OD450 did 15C03 mouse Fab (periplasmic extract) (Fab, V domains shown, mouse Fab with C-terminal His6-c-myc tag) VH: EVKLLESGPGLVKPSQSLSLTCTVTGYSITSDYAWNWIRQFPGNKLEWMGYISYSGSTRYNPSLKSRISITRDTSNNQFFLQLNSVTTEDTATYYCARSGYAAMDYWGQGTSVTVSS VL: ENVLTQSPAIMSASPGEKVTMTCRASSSVSSSYLHWYQQKSGASPKLWIYSTSNLASGVPARFSGSGSGTSYSLTISSVEAEDAATYYCQQYSGYPLTFGSGTKLEIK show?
0.05
